Hey, just so you know, these numbers are from patent US7501413B2.

target: human factor Xa (Homo sapiens, UniProt P00742); construct: purchased Enzyme Research Laboratories; assay: Factor Xa chromogenic peptide substrate assay (S-2222); type: biochemical; conditions: human factor Xa 3 nM, chromogenic substrate S-2222 at 200 nM, HNPT buffer pH 7.8, room temperature; apparent Ki calculated from IC50 (Cheng-Prusoff), Km 613 μM
Sequence (P00742 235-488 limits assumed): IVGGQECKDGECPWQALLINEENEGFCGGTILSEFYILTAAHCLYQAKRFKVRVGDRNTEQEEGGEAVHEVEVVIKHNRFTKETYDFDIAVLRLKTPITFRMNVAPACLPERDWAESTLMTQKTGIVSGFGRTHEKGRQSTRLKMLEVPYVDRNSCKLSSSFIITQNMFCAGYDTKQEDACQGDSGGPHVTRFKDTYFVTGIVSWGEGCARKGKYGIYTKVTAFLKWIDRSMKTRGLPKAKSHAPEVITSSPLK
Sequence (P00742 41-179 partner limits assumed): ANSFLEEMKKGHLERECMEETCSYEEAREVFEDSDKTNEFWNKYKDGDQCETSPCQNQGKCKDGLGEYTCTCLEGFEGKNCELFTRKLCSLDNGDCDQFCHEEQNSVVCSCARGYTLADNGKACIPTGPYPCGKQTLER
property.measured: Ki (µM)
Express it in µM; write the number only.

Example results:
>  <compound>
O=C(Nc1ccc(Cl)cc1)[C@H]1CC2(CC2)C[C@@H]1C(=O)Nc1ccc(-n2ccccc2=O)cc1F

>  <Ki (µM)>
0.008

$$$$
>  <compound>
O=C(Nc1ccc(Cl)cc1)[C@H]1C[C@@H](O)C[C@H]1C(=O)Nc1ccc(-n2ccccc2=O)cc1F

>  <Ki (µM)>
0.013

$$$$

Next up:
Req: Determine its reported Ki: COC1(CO)C[C@H](C(=O)Nc2ccc(Cl)cc2)[C@@H](C(=O)Nc2ccc(-n3ccccc3=O)cc2F)C1 (single isomer, unassigned)
Resp: 0.009
